Listed compounds paired with reported Modification of hemoglobin
# Assay Text: Effect of compound on modification of oxy form of hemoglobin was expressed as percent modification at 10 mM concentration
# Type: functional

Molecule Smiles | Modification of hemoglobin [%]
COC(=O)c1ccccc1OC(N)=O | 83
NC(=O)Oc1ccccc1C(=O)O | 94
COC(=O)c1ccc(OC(N)=O)cc1 | 89
CN(C)C(=O)Oc1ccccc1C(=O)OCc1ccccc1 | 0
CN(C)C(=O)Oc1c(Br)cc(Br)cc1C(=O)OCc1ccccc1 | 0
